Tested on: NF-κB
Experiment: NF-κB assay: THP1-NF-κB-LUC cells, LPS-stimulated secreted luciferase
Format: cell-based
Details: THP1-NF-κB-LUC cells; compounds 2 hours before LPS (10 ng/mL) for 18 hours; secreted luciferase; read-out: IC50 (NF-κB assay)
pIC50: −log10 of the molar value.
reported_endpoint: pIC50

# annotated cases, reported pIC50 shown
- compound: "Cc1ccc(NS(=O)(=O)c2cc3c(cc2Br)NC(=O)C(CC(C)C)O3)cc1Cl (stereo not shown)"
  reported_endpoint: "pIC50"
  measured_value: "5.00 to 6.00"
- compound: "COc1ccc(S(=O)(=O)c2cn(CC(=O)Nc3ccc(C)cc3)c3ccc(F)cc3c2=O)cc1"
  reported_endpoint: "pIC50"
  measured_value: "< 5.00"
- compound: "CCC1Oc2c(cc(Br)cc2S(=O)(=O)Nc2ccc(C)c(Cl)c2)N(C)C1=O (stereo not shown)"
  reported_endpoint: "pIC50"
  measured_value: "> 7.00"

### Prompt What does the record list as pIC50 for CCC1Oc2c(cc(Br)cc2S(=O)(=O)NC2CCCCC2)NC1=O (stereo not shown) ?
### Response 5.00 to 6.00

* * *

Tested on: NF-κB
Assay: NF-κB assay: THP1-NF-κB-LUC cells, LPS-stimulated secreted luciferase
Assay type: cell-based
Details: THP1-NF-κB-LUC cells; compounds 2 hours before LPS (10 ng/mL) for 18 hours; secreted luciferase; read-out: IC50 (NF-κB assay)
Experimental: FIG. 1 contains line plots showing NF-κB activity of exemplified compounds. 25k THP1-NF-κB-LUC cells were dispensed into 384 well plate (per well). […] Secreted luciferase activity were measured using quant-luc reagents (1 bag of luc reagent dilute to 40 mL, use 10 μL per well). […] 25k THP1-NF-κB-LUC cells were dispensed into 384 well plate (per well). […] Secreted luciferase activity were measured using quant-luc reagents (1 bag of luc reagent dilute to 40 mL, use 10 μL per well). […]
pIC50: −log10 of the molar value.
reported_endpoint: pIC50

- compound: "CCC1Oc2cc(S(=O)(=O)Nc3cccc(SC)c3)c(Cl)cc2NC1=O (centres unmarked)"
  reported_endpoint: "pIC50"
  measured_value: "6.00 to 7.00"
- compound: "CCc1cccc(NS(=O)(=O)c2cc3c(cc2Br)NC(=O)C(CC(C)C)O3)c1 (centres unmarked)"
  reported_endpoint: "pIC50"
  measured_value: "6.00 to 7.00"
- compound: "CC1Oc2c(cc(Br)cc2S(=O)(=O)NC2CCC(C(C)(C)C)CC2)NC1=O (centres unmarked)"
  reported_endpoint: "pIC50"
  measured_value: "< 5.00"

Go through the items and report each one's pIC50.
1. CCC1Oc2cc(S(=O)(=O)Nc3ccc(C)c(F)c3)c(Br)cc2N(C)C1=O (centres unmarked)
2. Cc1ccc(S(=O)(=O)c2cn(C)c3cc(F)c(F)cc3c2=O)cc1
3. CC(C)CC1Oc2cc(S(=O)(=O)Nc3ccccc3)c(Br)cc2NC1=O (centres unmarked)
4. O=C1COc2c(cc(Br)cc2S(=O)(=O)NC2CCC(O)CC2)N1 (centres unmarked)
5. CC1Oc2c(cc(Cl)cc2S(=O)(=O)Nc2cccc(Cl)c2)NC1=O (centres unmarked)
6. O=S(=O)(c1ccc(Cl)cc1)c1cnccc1O
7. O=c1c(S(=O)(=O)c2ccc(F)c(F)c2)c[nH]c2cccnc12

### Response
> 7.00
< 5.00
6.00 to 7.00
< 5.00
> 7.00
< 5.00
< 5.00

Go through the items and report each one's pIC50.
1. CCS(=O)(=O)c1cc2c(c(S(=O)(=O)Nc3ccc(C(C)C)cc3)c1)OCC(=O)N2
2. Cc1ccc(NS(=O)(=O)c2cc(Br)cc3c2OC(C)C(=O)N3C)cc1 (centres unmarked)
3. CCC1Oc2cc(S(=O)(=O)Nc3ccc(OC)cc3)c(Br)cc2N(C)C1=O (centres unmarked)

### Response
> 7.00
> 7.00
> 7.00

Go through the items and report each one's pIC50.
1. CC1Oc2c(cc(Br)cc2S(=O)(=O)Nc2ccc(F)c(F)c2)N(C)C1=O (centres unmarked)
2. COc1ccc(S(=O)(=O)c2cn(CC(=O)Nc3ccccc3)c3ccc(F)cc3c2=O)cc1
3. COc1ccc(NS(=O)(=O)c2cc3c(cc2C)N(C(C)=O)CCO3)c(OC)c1
4. COc1ccc(NS(=O)(=O)c2cc3c(cc2C)N(C(C)=O)CCO3)cc1OC
5. O=C1COc2c(cc(Br)cc2S(=O)(=O)NCc2ccc(OC(F)(F)F)cc2)N1
6. Cc1cccc(N(C)S(=O)(=O)c2cc3c(cc2C)NC(=O)CO3)c1
7. CC1Oc2cc(S(=O)(=O)Nc3ccc(C#N)cc3)c(Cl)cc2NC1=O (centres unmarked)

### Response
["> 7.00", "< 5.00", "< 5.00", "< 5.00", "< 5.00", "< 5.00", "6.00 to 7.00"]

* * *

System: NF-κB
Assay: NF-κB assay: THP1-NF-κB-LUC cells, LPS-stimulated secreted luciferase
Assay type: cell-based
Conditions: THP1-NF-κB-LUC cells; compounds 2 hours before LPS (10 ng/mL) for 18 hours; secreted luciferase; read-out: IC50 (NF-κB assay)
reported_endpoint: IC50

Go through the items and report each one's IC50.
1. CCC1Oc2c(cc(Cl)cc2S(=O)(=O)Nc2ccc(F)cc2F)NC1=O (centres unmarked)
2. CCCNS(=O)(=O)c1cc2c(cc1Cl)NC(=O)C(CC)O2 (centres unmarked)
3. COc1ccc(NS(=O)(=O)c2cc3c(cc2C)NC(=O)CO3)cc1Cl
4. CCC1Oc2cc(S(=O)(=O)NC3CCCCC3)c(Br)cc2NC1=O (centres unmarked)
5. Cc1cc2c(cc1S(=O)(=O)Nc1cccc(F)c1)OCC(=O)N2
6. CC1Oc2cc(S(=O)(=O)NCc3ccc(F)cc3F)c(Br)cc2NC1=O (centres unmarked)
7. CC1Oc2cc(S(=O)(=O)Nc3ccc(Cl)cc3)c(Cl)cc2NC1=O (centres unmarked)

### Response
["< 100 nM", "> 10000 nM", "1000 to 10000 nM", "> 10000 nM", "< 100 nM", "1000 to 10000 nM", "100 to 1000 nM"]

Go through the items and report each one's IC50.
1. CCC1Oc2cc(S(=O)(=O)Nc3cc(Cl)ccc3C)c(Cl)cc2NC1=O (centres unmarked)
2. CCC1Oc2c(cc(Br)cc2S(=O)(=O)Nc2ccc(Cl)cc2)N(C)C1=O (centres unmarked)
3. CCc1ccc(NS(=O)(=O)c2cc3c(cc2Cl)NC(=O)C(CC)O3)cc1 (centres unmarked)
4. COc1ccc(S(=O)(=O)c2cnccc2O)cc1OC

### Response
1: 1000 to 10000 nM; 2: < 100 nM; 3: < 100 nM; 4: > 10000 nM

* * *

System: NF-κB
Assay: NF-κB assay: THP1-NF-κB-LUC cells, LPS-stimulated secreted luciferase
Type: cell-based
Conditions: THP1-NF-κB-LUC cells; compounds 2 hours before LPS (10 ng/mL) for 18 hours; secreted luciferase; read-out: IC50 (NF-κB assay)
pIC50: −log10 of the molar value.
reported_endpoint: pIC50

# annotated cases, reported pIC50 shown
- compound: "CNc1cccc2cc(S(=O)(=O)c3ccccc3)cnc12"
  pIC50: "< 5.00"
- compound: "CC(C)c1ccc(NS(=O)(=O)c2cc(S(C)(=O)=O)cc3c2OCC(=O)N3)cc1"
  pIC50: "> 7.00"

Go through the items and report each one's pIC50.
1. CC(C)CC1Oc2c(cc(Br)cc2S(=O)(=O)Nc2ccc(C(C)C)cc2)NC1=O (centres unmarked)
2. CCC1Oc2c(cc(Cl)cc2S(=O)(=O)Nc2ccc(F)c(F)c2)NC1=O (centres unmarked)
3. CC1Oc2c(cc(Cl)cc2S(=O)(=O)Nc2ccc(F)cc2Cl)NC1=O (centres unmarked)
4. Cc1ccc(NS(=O)(=O)c2cc3c(cc2C)NC(=O)CO3)cc1F

### Response
1: > 7.00; 2: > 7.00; 3: > 7.00; 4: > 7.00

Go through the items and report each one's pIC50.
1. CCc1ccc(S(=O)(=O)c2cn(CCO)c3cc(F)c(F)cc3c2=O)cc1
2. Cc1ccc(NS(=O)(=O)c2c(C)c(Cl)cc3c2OCC(=O)N3)cc1
3. O=c1c(S(=O)(=O)c2ccc(F)cc2)c(O)[nH]c2ncccc12

### Response
< 5.00
6.00 to 7.00
< 5.00

Go through the items and report each one's pIC50.
1. COc1ccc(NS(=O)(=O)c2cc(S(C)(=O)=O)cc3c2OCC(=O)N3)cc1
2. Cc1cc2c(cc1S(=O)(=O)Nc1cc(C(F)(F)F)cc(C(F)(F)F)c1)OCC(=O)N2
3. Cc1cc2c(cc1S(=O)(=O)Nc1ccc3c(c1)OCCO3)OCC(=O)N2
4. CC(C)CC1Oc2cc(S(=O)(=O)Nc3ccc(OC(F)(F)F)cc3)c(Br)cc2NC1=O (centres unmarked)
5. Cc1ccc(S(=O)(=O)c2c[nH]c3cc(Cl)ccc3c2=O)cc1F

### Response
["> 7.00", "5.00 to 6.00", "6.00 to 7.00", "6.00 to 7.00", "> 7.00"]

Entry source: patent US12606528B2
